assay_explanation: Ratio of AUC in brain to plasma of rat at 1 mg/kg, iv and 10 mg/kg, po
Format: ADME, organism-based
reported_endpoint: Kp

# Kp of O=C1N(c2ccc(F)cc2)CCc2nc(COc3ccccc3)cn21 = 1.8

* * *

subject_of_test: UniProt:P31424
Sequence (P31424 21-1203 limits assumed): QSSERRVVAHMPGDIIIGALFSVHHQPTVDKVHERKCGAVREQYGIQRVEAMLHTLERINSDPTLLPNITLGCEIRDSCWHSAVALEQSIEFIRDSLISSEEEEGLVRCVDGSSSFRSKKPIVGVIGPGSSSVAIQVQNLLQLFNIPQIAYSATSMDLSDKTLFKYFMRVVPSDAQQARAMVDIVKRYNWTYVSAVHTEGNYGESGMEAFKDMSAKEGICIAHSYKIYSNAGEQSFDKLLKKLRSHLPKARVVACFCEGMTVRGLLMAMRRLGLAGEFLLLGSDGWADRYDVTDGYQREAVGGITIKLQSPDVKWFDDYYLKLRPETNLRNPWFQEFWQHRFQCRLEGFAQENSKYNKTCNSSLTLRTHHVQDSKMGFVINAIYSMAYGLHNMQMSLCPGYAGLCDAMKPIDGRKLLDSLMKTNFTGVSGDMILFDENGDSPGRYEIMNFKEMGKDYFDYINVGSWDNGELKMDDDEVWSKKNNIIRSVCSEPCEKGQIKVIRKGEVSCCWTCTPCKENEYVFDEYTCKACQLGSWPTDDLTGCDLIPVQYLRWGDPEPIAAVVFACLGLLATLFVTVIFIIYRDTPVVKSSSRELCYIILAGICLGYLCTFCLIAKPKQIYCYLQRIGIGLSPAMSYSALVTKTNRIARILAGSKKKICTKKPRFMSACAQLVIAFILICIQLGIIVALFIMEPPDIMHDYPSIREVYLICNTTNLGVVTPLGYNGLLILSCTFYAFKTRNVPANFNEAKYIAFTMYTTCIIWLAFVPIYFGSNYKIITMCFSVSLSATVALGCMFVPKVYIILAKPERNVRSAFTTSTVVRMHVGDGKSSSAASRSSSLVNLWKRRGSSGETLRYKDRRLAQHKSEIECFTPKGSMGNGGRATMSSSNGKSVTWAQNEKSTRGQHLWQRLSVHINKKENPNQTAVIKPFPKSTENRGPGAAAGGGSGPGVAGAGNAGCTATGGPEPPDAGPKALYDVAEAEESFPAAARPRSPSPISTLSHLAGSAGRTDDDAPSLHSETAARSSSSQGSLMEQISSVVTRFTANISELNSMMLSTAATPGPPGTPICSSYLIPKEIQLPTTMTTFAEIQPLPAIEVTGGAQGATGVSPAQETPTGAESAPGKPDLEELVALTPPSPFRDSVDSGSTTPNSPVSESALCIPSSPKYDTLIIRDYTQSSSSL
assay_explanation: Positive allosteric modulation at rat mGluR5 expressed in HEK293 cells assessed as amplitude of response at 30 uM by calcium mobilization assay relative to glutamate
Type: functional, cell-based
Listing: Emax of selected compounds
Response body: numeric value in %, unit text excluded.

compound_structure_string	Emax, %
O=c1n(-c2ccc(F)c(F)c2)ccc2nc(COc3ccccc3)cn12	93
O=c1n(-c2ccc(F)cn2)ccc2nc(COc3ccccc3)cn12	87
O=c1n(-c2ccc(F)cc2)ccc2nc(COc3cccc(F)c3)cn12	91
O=C1N(c2ccc(F)cc2)CCc2nc(COc3cccc(F)c3)cn21	72
Cc1ccc(N2CCc3nc(COc4ccccc4)cn3C2=O)nc1	74

Moving on to another compound below.
# Emax of CN(C)c1cccc(-n2ccc3nc(COc4ccccc4)cn3c2=O)n1 = 87

* * *

subject_of_test: Cytochrome P450 2D6 (Homo sapiens, UniProt P10635)
Sequence (P10635 whole entry): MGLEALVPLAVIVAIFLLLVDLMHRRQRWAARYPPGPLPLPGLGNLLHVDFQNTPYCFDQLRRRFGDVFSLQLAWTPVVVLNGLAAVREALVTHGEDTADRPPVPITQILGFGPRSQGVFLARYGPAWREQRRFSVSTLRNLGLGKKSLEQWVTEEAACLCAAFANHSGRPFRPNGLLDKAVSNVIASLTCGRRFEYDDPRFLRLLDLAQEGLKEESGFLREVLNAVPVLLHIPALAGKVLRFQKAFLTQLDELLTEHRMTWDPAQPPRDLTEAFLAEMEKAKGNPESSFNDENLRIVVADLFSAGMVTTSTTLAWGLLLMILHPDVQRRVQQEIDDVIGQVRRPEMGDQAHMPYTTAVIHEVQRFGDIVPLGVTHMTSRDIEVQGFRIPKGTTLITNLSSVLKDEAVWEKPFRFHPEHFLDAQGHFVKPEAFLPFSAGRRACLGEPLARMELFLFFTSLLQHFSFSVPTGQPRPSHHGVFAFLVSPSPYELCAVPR
pIC50: −log10 of the molar value.
reported_endpoint: pIC50

Measured pIC50 for this entry O=C1N(c2ccc(F)cc2)CCc2nc(COc3ccccc3)cn21 on Cytochrome P450 2D6 (Homo sapiens, UniProt P10635): < 4.70

* * *

assay_explanation: Drug metabolism in rat liver microsomes assessed as compound metabolized at 1 uM after 15 mins
Assay type: ADME
condition_set: read-out: Drug metabolism
Listing: metabolised at 0.25 h, 1 µM of selected compounds
Response body: numeric value in %, unit text excluded.

Answered examples (8):
compound_structure_string	unit_descriptor	measured_number
O=c1n(-c2ccc(F)cc2)ccc2nc(COc3ccccc3)c(Cl)n12	%	73
Cc1nc(-n2ccc3nc(COc4ccccc4)cn3c2=O)ccc1F	%	50
Cc1cc(N2CCc3nc(COc4ccccc4)cn3C2=O)ccc1F	%	37
Cc1cn(-c2ccc(F)cc2)c(=O)n2cc(COc3ccccc3)nc12	%	71
O=C1N(c2ccc(F)cc2)CCc2nc(COc3ccccc3)cn21	%	19
O=c1n(-c2ccc(F)cc2)ccc2nc(COc3ccccc3)cn12	%	27
Cc1ccc(N2CCc3nc(COc4ccccc4)cn3C2=O)nc1	%	98
O=c1n(-c2ccc(F)cc2)ccc2nc(COc3ccc(F)cc3)cn12	%	29

# metabolised at 0.25 h, 1 µM of O=C1N(c2ccc(F)cc2)CCc2nc(COc3cccc(F)c3)cn21 = 29

# metabolised at 0.25 h, 1 µM of O=C1N(c2ccc(F)cn2)CCc2nc(COc3ccccc3)cn21 = 14

# metabolised at 0.25 h, 1 µM of O=C1N(c2cccc(F)c2)CCc2nc(COc3ccccc3)cn21 = 78

# metabolised at 0.25 h, 1 µM of O=c1n(-c2cccc(F)c2)ccc2nc(COc3ccccc3)cn12 = 71

# metabolised at 0.25 h, 1 µM of Cc1nc(N2CCc3nc(COc4ccccc4)cn3C2=O)ccc1F = 93

* * *

assay_explanation: Fraction unbound in rat brain at 1 mg/kg, iv and 10 mg/kg, po
Format: ADME, organism-based
reported_endpoint: fraction unbound
A bare number is all that is needed in reply.

# fraction unbound of O=C1N(c2ccc(F)cc2)CCc2nc(COc3ccccc3)cn21 = 0.062
